The reported numbers originate from the supplement of paper PMC10567573.

B1: ZNF263 (parent)
chain: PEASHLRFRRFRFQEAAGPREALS

# Variants of: B1
# Assay Method Text: protein stability index of a GFP-peptide fusion (GPS, HEK-293T) (PSI 1-6); higher = more stable;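 note: lentivirally expressed fusions sorted by FACS into six bins by GFP to DsRed ratio, PSI derived from sequencing read proportions per bin multiplied by bin number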
# Recorded Conditions: c terminus: a fixed tail appended
Returns one of yes or no; yes when protein stability index is >= 3.

- Primary Sequence: "PLASHLRFRRFRFQEAAGPREALS [E2L]"
  Assigned Label: "no"
- Primary Sequence: "PEASHLRFRRFRWQEAAGPREALS [F13W]"
  Assigned Label: "yes"
- Primary Sequence: "PEASHLRFRRLRFQEAAGPREALS [F11L]"
  Assigned Label: "no"
- Primary Sequence: "PEASHLRFRRFRFPEAAGPREALS [Q14P]"
  Assigned Label: "yes"
- Primary Sequence: "PEASFLRFRRFRFQEAAGPREALS [H5F]"
  Assigned Label: "no"
- Primary Sequence: "PEASHLRLRRFRFQEAAGPREALS [F8L]"
  Assigned Label: "no"
- Primary Sequence: "PEASHLRFRRFRFQEAAGYREALS [P19Y]"
  Assigned Label: "no"
- Primary Sequence: "PEASHLRFRRFNFQEAAGPREALS [R12N]"
  Assigned Label: "yes"
- Primary Sequence: "PEASHLRGRRFRFQEAAGPREALS [F8G]"
  Assigned Label: "yes"
- Primary Sequence: "PEASHLRRRRFRFQEAAGPREALS [F8R]"
  Assigned Label: "yes"

Could you tell me if the measured protein stability index of PEASHLRFRRFRFQHAAGPREALS [E15H] reaches 3 or more?
no

Decide: protein stability index of PEASHLRFRRFRFQEAAGPRLALS [E21L] >= 3?
no

Reported protein stability index reaches at least 3 for PEASHLVFRRFRFQEAAGPREALS [R7V] ?
no

# bool: protein stability index of PEASHLRFRRFRFQEAAGPREWLS [A22W] >= 3
no
